Each record here notes measured EC50.
Subject Of Test: PPARγ (Homo sapiens, UniProt P37231)
Construct: Following the challenge of the preadipocytes, cells may be lysed with lysis buffer; endogenous in cells
Sequence (P37231 whole entry): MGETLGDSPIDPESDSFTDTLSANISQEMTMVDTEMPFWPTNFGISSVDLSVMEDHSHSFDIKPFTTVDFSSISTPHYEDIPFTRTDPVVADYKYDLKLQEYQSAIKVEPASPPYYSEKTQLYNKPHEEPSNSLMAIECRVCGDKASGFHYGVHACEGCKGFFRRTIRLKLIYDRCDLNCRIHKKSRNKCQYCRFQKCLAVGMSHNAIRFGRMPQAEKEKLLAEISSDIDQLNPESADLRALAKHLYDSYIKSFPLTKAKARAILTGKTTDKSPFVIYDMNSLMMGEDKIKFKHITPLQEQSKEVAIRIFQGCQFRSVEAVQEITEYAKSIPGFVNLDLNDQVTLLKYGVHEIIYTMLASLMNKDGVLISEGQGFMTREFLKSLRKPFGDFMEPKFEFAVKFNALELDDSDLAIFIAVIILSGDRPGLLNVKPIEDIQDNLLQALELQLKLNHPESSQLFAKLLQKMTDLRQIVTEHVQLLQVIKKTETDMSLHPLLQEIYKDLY
Experiment Notes: aP2 Assay for PPAR gamma Agonists (bDNA aP2 mRNA in preadipocytes)
Experimental Parameters: values in square brackets

Compound	Result
CCN(C(=O)Oc1ccc(Cl)cc1)C1CCc2cc(SC(C)(C)C(=O)O)c(Cl)cc2C1 (stereo not shown) [Example 59]	1.11 µM

Summary for this compound, CCN(C(=O)Oc1ccc(C)cc1)C1CCc2cc(SC(C)(C)C(=O)O)c(Cl)cc2C1 (stereo not shown) [Example 58] : EC50 is > 3 µM

Summary for this compound, CCN(C(=O)Oc1ccc(OC(F)(F)F)cc1)C1CCc2cc(SC(C)(C)C(=O)O)ccc2C1 (stereo not shown) [Example 60] : EC50 is > 3 µM

Summary for this compound, CCN(C(=O)Nc1ccc(OC(F)(F)F)cc1)C1CCc2cc(SC(C)(C)C(=O)O)c(F)cc2C1 (stereo not shown) [Example 50] : EC50 is > 3 µM

* * *

Subject Of Test: PPARα (Rattus norvegicus)
Construct: H4IIE rat hepatoma cell line was obtained from ATCC; host or cells: H4IIE rat hepatoma cells
Experiment Notes: HD bDNA Assay (HD gene induction)
Type: cell-based
Experimental Parameters: H4IIE rat hepatoma cells, 24 hours; read-out: PPARα EC50
Recorded Endpoint: EC50 (nM)
Report as a plain number; the unit nM is understood.

Here is how some molecules turned out for EC50.
Molecule	EC50 (nM)
CCN(C(=O)Nc1ccc(OC(F)(F)F)c(Br)c1)C1Cc2ccc(SC(C)(C)C(=O)O)cc2C1 (stereo not drawn)	208
CC(C)(Sc1ccc2c(c1)CC(N(CCCC1CCCC1)C(=O)Nc1ccc(OC(F)(F)F)cc1)C2)C(=O)O (stereo not drawn)	323
CCN(C(=O)Nc1ccc(OC(F)(F)F)cc1)C1CCc2cc(OC(C)(C)C(=O)O)ccc2C1 (stereo not drawn)	14
CCCCCCCN(C(=O)Nc1ccc(Cl)c(Cl)c1)C1Cc2ccc(SC(C)(C)C(=O)O)cc2C1 (stereo not drawn)	2340
CCCN(C(=O)Nc1ccc(OC(F)(F)F)cc1)C1CCc2ccc(SC(C)(C)C(=O)O)cc2C1 (stereo not drawn)	1390

Record for CCCN(C(=O)Nc1cc(C)cc(C)c1)C1Cc2ccc(SC(C)(C)C(=O)O)cc2C1 (stereo not drawn) under target or system PPARα (Rattus norvegicus): EC50 reported as 537

Record for CCCCCCCN(C(=O)Nc1ccc(OC(F)(F)F)cc1)C1Cc2ccc(SC3(C(=O)O)CCC3)cc2C1 (stereo not drawn) under target or system PPARα (Rattus norvegicus): EC50 reported as 780

Record for CCCCCCCN(C(=O)Nc1cccc(Cl)c1)C1Cc2ccc(SC(C)(C)C(=O)O)cc2C1 (stereo not drawn) under target or system PPARα (Rattus norvegicus): EC50 reported as 2090

Record for COC(=O)CCCCCN(C(=O)Nc1ccc(C(C)C)cc1)C1Cc2ccc(SC(C)(C)C(=O)O)cc2C1 (stereo not drawn) under target or system PPARα (Rattus norvegicus): EC50 reported as 950

Record for CC(C)(Sc1ccc2c(c1)CC(N(CC1CCCCC1)C(=O)Nc1ccc(OC(F)(F)F)cc1)C2)C(=O)O (stereo not drawn) under target or system PPARα (Rattus norvegicus): EC50 reported as 1300

Record for CCCN(C(=O)Nc1ccc(OC)cc1)C1Cc2ccc(SC(C)(C)C(=O)O)cc2C1 (stereo not drawn) under target or system PPARα (Rattus norvegicus): EC50 reported as 497

Record for CCCCCN(C(=O)Nc1ccc(C)c([N+](=O)[O-])c1)C1Cc2ccc(SC(C)(C)C(=O)O)cc2C1 (stereo not drawn) under target or system PPARα (Rattus norvegicus): EC50 reported as 385

* * *

Subject Of Test: PPARα (Rattus norvegicus, UniProt P37230)
Construct: H4IIE rat hepatoma cell line was obtained from ATCC; host or cells: H4IIE rat hepatoma cells
Sequence (P37230 whole entry): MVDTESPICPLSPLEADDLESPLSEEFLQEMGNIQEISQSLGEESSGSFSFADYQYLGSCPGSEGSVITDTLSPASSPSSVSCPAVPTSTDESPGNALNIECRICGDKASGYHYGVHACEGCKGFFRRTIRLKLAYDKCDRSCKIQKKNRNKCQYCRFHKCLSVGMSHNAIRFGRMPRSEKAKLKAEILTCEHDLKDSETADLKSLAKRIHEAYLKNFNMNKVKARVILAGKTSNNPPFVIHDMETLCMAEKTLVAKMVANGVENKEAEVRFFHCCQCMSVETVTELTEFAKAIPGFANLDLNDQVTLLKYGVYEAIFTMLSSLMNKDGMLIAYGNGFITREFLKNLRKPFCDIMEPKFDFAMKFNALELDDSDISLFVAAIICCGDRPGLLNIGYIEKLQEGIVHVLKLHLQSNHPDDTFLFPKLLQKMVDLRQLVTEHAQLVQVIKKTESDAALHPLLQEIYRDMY
Experiment Notes: HD bDNA Assay (HD gene induction)
Type: cell-based
Experimental Parameters: in section F; target not named there, values match the PPARα column; read-out: EC50
Each record here notes measured EC50.
Report as a plain number; the unit nM is understood.

Summary for this compound, CCN(C(=O)Oc1ccc(OC(F)(F)F)cc1)C1CCc2cc(SC(C)(C)C(=O)O)ccc2C1 (stereo not shown) : EC50 is 2

Summary for this compound, CCCCCN(C(=O)Nc1ccc(OC(F)(F)F)cc1)C1Cc2ccc(SC(C)(C)C(=O)O)cc2C1 (stereo not shown) : EC50 is 73

Summary for this compound, CCN(C(=O)Nc1ccc(C(C)C)cc1)C1Cc2ccc(SC(C)(C)C(=O)O)cc2C1 (stereo not shown) : EC50 is 56

Summary for this compound, CCCCCN(C(=O)Nc1ccc(-c2ccccc2)cc1)C1Cc2ccc(SC(C)(C)C(=O)O)cc2C1 (stereo not shown) : EC50 is 183

Summary for this compound, CCN(C(=O)Nc1ccc(OC(F)(F)F)cc1)C1CCc2cc(SC(C)(C)C(=O)O)c(-c3ccccc3)cc2C1 (stereo not shown) : EC50 is 545

Summary for this compound, CCCCCCN(C(=O)Nc1ccc(OC(F)(F)F)cc1)C1Cc2ccc(SC(C)(C)C(=O)O)cc2C1 (stereo not shown) : EC50 is 213

Summary for this compound, CCCCN(C(=O)Nc1ccc(OC(F)(F)F)cc1)C1CCc2cc(SC(C)(C)C(=O)O)ccc2C1 (stereo not shown) : EC50 is 219

Summary for this compound, CCN(C(=O)Nc1ccc(OC(F)(F)F)cc1)C1CCc2cc(SC(C)(C)C(=O)O)c(OC(F)(F)F)cc2C1 (stereo not shown) : EC50 is 131

Summary for this compound, CCCCN(C(=O)Nc1ccc(SC(F)(F)F)cc1)C1CCc2cc(SC(C)(C)C(=O)O)ccc2C1 (stereo not shown) : EC50 is 244

Summary for this compound, CCCCCN(C(=O)Nc1ccc(N(C)C)cc1)C1Cc2ccc(SC(C)(C)C(=O)O)cc2C1 (stereo not shown) : EC50 is 131

Summary for this compound, CCN(C(=O)Oc1ccc(Cl)cc1)C1CCc2cc(SC(C)(C)C(=O)O)c(Cl)cc2C1 (stereo not shown) : EC50 is 390

Summary for this compound, CC(C)(Sc1ccc2c(c1)CC(NC(=O)Nc1ccc(OC(F)(F)F)cc1)C2)C(=O)O (stereo not shown) : EC50 is 135

Summary for this compound, CC(C)CCN(C(=O)Nc1ccc(C(C)C)cc1)C1Cc2ccc(SC(C)(C)C(=O)O)cc2C1 (stereo not shown) : EC50 is 106

* * *

Each record here notes measured pEC50.
Subject Of Test: PPARα (Rattus norvegicus)
Construct: H4IIE rat hepatoma cell line was obtained from ATCC; host or cells: H4IIE rat hepatoma cells
Experiment Notes: HD bDNA Assay (HD gene induction)
Format: cell-based
Experimental Parameters: H4IIE rat hepatoma cells, 24 hours; read-out: PPARα EC50
Lab note: report pEC50 as minus log10 of the concentration in molar units, number only.

Here is how some molecules turned out for pEC50.
Molecule	pEC50
CCCN(C(=O)Nc1ccc(C(F)(F)F)cc1)C1Cc2ccc(SC(C)(C)C(=O)O)cc2C1 (stereo not shown) [Example 35]	6.11
CCCCCN(C(=O)Nc1ccc2ccccc2c1)C1Cc2ccc(SC(C)(C)C(=O)O)cc2C1 (stereo not shown) [Example 39]	6.00
CC(C)CN(C(=O)Nc1ccc(OC(F)(F)F)cc1)C1Cc2ccc(SC(C)(C)C(=O)O)cc2C1 (stereo not shown) [Example 41]	5.66

Now take the following molecule into account.
Summary for this molecule, CCCCCN(C(=O)Nc1ccc2c(c1)CCC2)C1Cc2ccc(SC(C)(C)C(=O)O)cc2C1 (stereo not shown) [Example 29] : pEC50 is 6.42

* * *

Subject Of Test: PPARγ (Homo sapiens, UniProt P37231)
Construct: Following the challenge of the preadipocytes, cells may be lysed with lysis buffer; endogenous in cells; host or cells: preadipocytes
Experiment Notes: aP2 Assay for PPAR gamma Agonists (bDNA aP2 mRNA in preadipocytes)
Format: cell-based
Experimental Parameters: fold induction; PPARγ standard: FI = 70.3
Recorded Endpoint: PPARγ FI
Give the figure by itself; no unit, no explanation.

Here is how some compounds turned out for PPARγ FI.
Compound	Readout Number
CCCCCCN(C(=O)Nc1ccc(OC(F)(F)F)cc1)C1Cc2ccc(SC(C)(C)C(=O)O)cc2C1 (centres unmarked) [Example 14]	0.3
CCCCCN(C(=O)Nc1ccc(OC(F)(F)F)cc1)C1Cc2ccc(SC(C)(C)C(=O)O)cc2C1 (centres unmarked) [Example 8]	1.9
CCN(C(=O)Nc1ccc(N(C)C)cc1)C1Cc2ccc(SC(C)(C)C(=O)O)cc2C1 (centres unmarked) [Example 7]	0
CCN(C(=O)Nc1ccc(C(C)C)cc1)C1Cc2ccc(SC(C)(C)C(=O)O)cc2C1 (centres unmarked) [Example 6]	1.9
CC(C)CCN(C(=O)Nc1ccc(OC(F)(F)F)cc1)C1Cc2ccc(SC(C)(C)C(=O)O)cc2C1 (centres unmarked) [Example 20]	0.44

Summary for this compound, CCCCCN(C(=O)Nc1ccc(-c2ccccc2)cc1)C1Cc2ccc(SC(C)(C)C(=O)O)cc2C1 (centres unmarked) [Example 12] : PPARγ FI is 11

Summary for this compound, CC(C)(Sc1ccc2c(c1)CC(NC(=O)Nc1ccc(OC(F)(F)F)cc1)C2)C(=O)O (centres unmarked) [Example 18] : PPARγ FI is 0.31

Summary for this compound, CCCCCN(C(=O)Nc1ccc(N(C)C)cc1)C1Cc2ccc(SC(C)(C)C(=O)O)cc2C1 (centres unmarked) [Example 9] : PPARγ FI is 2.9

Summary for this compound, CCCN(C(=O)Nc1ccc(OC(F)(F)F)cc1)C1Cc2ccc(SC(C)(C)C(=O)O)cc2C1 (centres unmarked) [Example 16] : PPARγ FI is 0.37

Summary for this compound, CCN(C(=O)Nc1ccc(SC(F)(F)F)cc1)C1Cc2ccc(SC(C)(C)C(=O)O)cc2C1 (centres unmarked) [Example 4] : PPARγ FI is 3.7

Summary for this compound, CCCCCN(C(=O)Nc1ccc(SC(F)(F)F)cc1)C1Cc2ccc(SC(C)(C)C(=O)O)cc2C1 (centres unmarked) [Example 5] : PPARγ FI is 4.0
